Test system: ddY strain male mice
Method Notes: Acute toxicity, minimum lethal dose
Assay type: in vivo
Run Conditions: i.p.; mortality for 7 days
Each item that follows carries a reported MLD (Minimum Lethal Dose).

Some molecules with recorded MLD (Minimum Lethal Dose):
| Molecule | Assay Target | MLD (Minimum Lethal Dose) |
| --- | --- | --- |
| CCCOc1cc(C(=O)O[C@H]2C[C@H]3CC[C@@H](C2)N3C)c2ccccc2n1 [Compound 2Sa] | ddY strain male mice | 100 mg/kg |
| CN1[C@@H]2CC[C@H]1C[C@@H](OC(=O)c1cnc3ccccc3c1O)C2 [5S'a] | ddY strain male mice | > 300 mg/kg |
| COc1cc(C(=O)O[C@H]2C[C@H]3CC[C@@H](C2)N3C)c2ccccc2n1 [Compound 4Sa] | ddY strain male mice | 200 mg/kg |

We now examine a further molecule.
QUERY: Using the record for CCCCCCOc1cc(C(=O)O[C@H]2C[C@H]3CC[C@@H](C2)N3C)c2ccccc2n1 [Compound 9Sa] , report its MLD (Minimum Lethal Dose).
RESULT: > 300 mg/kg
